assay: in vivo; details: mouse, 1 mg/kg, read-out: CL (converted)
test_readout: clearance

compound="CC(=O)NC1C(OC2C(C)OC(OC3C=CC=CC=CC=CCCC=CC=CC(C)C(O)C(C)C(C)OC(=O)CC(O)CC(O)CC(O)CCC(O)C(O)CC4(O)CC(O)C(C(=O)O)C(C3)O4)C(O)C2N)OC(CO)C(O)C1O (stereo not shown)" result="1.67 mL/min/kg"

----------
Reported LD50 at 7 days by item:
test: Single intravenous dose acute toxicity; assay type: in vivo, mice; details: both sexes, ICR, mouse, in vivo; mice, single intravenous administration; read-out: LD50, median lethal dose (dose causing 50% mortality)
test_readout: LD50 at 7 days (mg/kg)

compound="C[C@@H]1[C@H](O)[C@@H](C)/C=C/C=C/C=C/C=C/C=C/C=C/C=C/[C@H](O[C@@H]2O[C@H](C)[C@@H](O)[C@H](N)[C@@H]2O)C[C@@H]2O[C@](O)(C[C@@H](O)C[C@@H](O)[C@H](O)CC[C@@H](O)C[C@@H](O)CC(=O)O[C@H]1C)C[C@H](O)[C@H]2C(=O)O [Amphotericin B, amphotericin B]" quantity_unit=mg/kg numeric_value=2.3
compound="CC(=O)NC1C(OC2C(C)OC(OC3C=CC=CC=CC=CC=CC=CC=CC(C)C(O)C(C)C(C)OC(=O)CC(O)CC(O)CC(O)CCC(O)C(O)CC4(O)CC(O)C(C(=O)O)C(C3)O4)C(O)C2N)OC(CO)C(O)C1O (stereo not shown) [NPP B1, Nystatin-like Pseudonocardia polyene B1]" quantity_unit=mg/kg numeric_value=2.95
compound="CC(=O)NC1C(OC2C(C)OC(OC3C=CC=CC=CC=CCCC=CC=CC(C)C(O)C(C)C(C)OC(=O)CC(O)CC(O)CC(O)CCC(O)C(O)CC4(O)CC(O)C(C(=O)O)C(C3)O4)C(O)C2N)OC(CO)C(O)C1O (stereo not shown) [NPP A1]" quantity_unit=mg/kg numeric_value=16.1
compound="C[C@@H]1[C@H](O)[C@@H](C)/C=C/C=C/CC/C=C/C=C/C=C/C=C/[C@H](O[C@@H]2O[C@H](C)[C@@H](O)[C@H](N)[C@@H]2O)C[C@@H]2O[C@](O)(C[C@@H](O)[C@H](O)CC[C@@H](O)C[C@@H](O)C[C@@H](O)CC(=O)O[C@H]1C)C[C@H](O)[C@H]2C(=O)O [Nystatin A1, nystatin A1]" quantity_unit=mg/kg numeric_value=5.37

----------
test: in vivo; settings: mouse, 1 mg/kg
test_readout: Vd

record_smiles=C[C@@H]1[C@H](O)[C@@H](C)/C=C/C=C/C=C/C=C/C=C/C=C/C=C/[C@H](O[C@@H]2O[C@H](C)[C@@H](O)[C@H](N)[C@@H]2O)C[C@@H]2O[C@](O)(C[C@@H](O)C[C@@H](O)[C@H](O)CC[C@@H](O)C[C@@H](O)CC(=O)O[C@H]1C)C[C@H](O)[C@H]2C(=O)O test_readout=Vd result="0.2 L/kg"
record_smiles=C[C@@H]1[C@H](O)[C@@H](C)/C=C/C=C/CC/C=C/C=C/C=C/C=C/[C@H](O[C@@H]2O[C@H](C)[C@@H](O)[C@H](N)[C@@H]2O)C[C@@H]2O[C@](O)(C[C@@H](O)[C@H](O)CC[C@@H](O)C[C@@H](O)C[C@@H](O)CC(=O)O[C@H]1C)C[C@H](O)[C@H]2C(=O)O test_readout=Vd result="0.1 L/kg"
